# measured target: GlcNAc(b1-3)Gal(b1-4)GlcNAc(b1-3)Gal(b1-4)GlcNAc(b1-3)Gal(b1-4)GlcNAc(b1-2)[GlcNAc(b1-3)Gal(b1-4)GlcNAc(b1-3)Gal(b1-4)GlcNAc(b1-3)Gal(b1-4)GlcNAc(b1-6)]Man(a1-6)[GlcNAc(b1-3)Gal(b1-4)GlcNAc(b1-3)Gal(b1-4)GlcNAc(b1-3)Gal(b1-4)GlcNAc(b1-2)Man(a1-3)]Man(b1-4)GlcNAc(b1-4)[Fuc(a1-6)]GlcNAc
# assay remarks: glycan array binding signal (z-score within array); higher = stronger binding
# conditions used: glycan notation: IUPAC condensed, linker removed
The full list was thinned out, with the strongest signals kept by preference.
metric name: glycan array binding signal (z-score)
When you answer, write just the number.

These recorded examples may help you get a feel for the data.
1) Epa19 (Candida glabrata) (protein) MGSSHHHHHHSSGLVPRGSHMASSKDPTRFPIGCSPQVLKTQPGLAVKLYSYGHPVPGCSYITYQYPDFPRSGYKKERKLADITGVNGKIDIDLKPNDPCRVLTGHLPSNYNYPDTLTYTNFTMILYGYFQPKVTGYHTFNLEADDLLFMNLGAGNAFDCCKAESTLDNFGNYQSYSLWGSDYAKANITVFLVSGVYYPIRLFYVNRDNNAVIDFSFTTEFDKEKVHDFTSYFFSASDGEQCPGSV: 2.24
2) Pwp4 (Candida glabrata) (protein) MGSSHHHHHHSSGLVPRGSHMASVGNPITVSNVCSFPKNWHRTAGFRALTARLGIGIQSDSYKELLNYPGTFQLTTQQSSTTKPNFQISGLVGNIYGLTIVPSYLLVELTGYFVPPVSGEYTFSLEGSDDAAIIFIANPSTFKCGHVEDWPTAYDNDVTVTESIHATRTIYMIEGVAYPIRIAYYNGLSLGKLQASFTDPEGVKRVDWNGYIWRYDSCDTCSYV: 5.36
3) Pwp3 (Candida glabrata) (protein) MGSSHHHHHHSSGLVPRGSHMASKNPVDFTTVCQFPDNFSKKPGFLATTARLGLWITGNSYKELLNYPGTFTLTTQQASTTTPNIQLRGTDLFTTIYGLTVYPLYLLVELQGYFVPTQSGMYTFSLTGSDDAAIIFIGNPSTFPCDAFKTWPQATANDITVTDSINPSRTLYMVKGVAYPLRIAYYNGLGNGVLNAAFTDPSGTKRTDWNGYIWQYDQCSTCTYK: 1.66
4) FimD (Bordetella pertussis) (protein) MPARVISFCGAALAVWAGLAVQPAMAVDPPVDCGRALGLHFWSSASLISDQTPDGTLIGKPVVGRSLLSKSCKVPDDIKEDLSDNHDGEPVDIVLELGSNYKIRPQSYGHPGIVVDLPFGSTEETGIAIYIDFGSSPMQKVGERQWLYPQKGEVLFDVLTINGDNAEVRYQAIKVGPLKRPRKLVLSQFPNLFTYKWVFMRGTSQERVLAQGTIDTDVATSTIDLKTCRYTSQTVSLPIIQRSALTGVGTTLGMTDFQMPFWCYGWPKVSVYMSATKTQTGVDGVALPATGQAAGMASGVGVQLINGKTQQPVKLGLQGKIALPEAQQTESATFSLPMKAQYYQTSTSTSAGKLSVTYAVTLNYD: 1.29
5) Pwp5 ND (Candida glabrata) (protein) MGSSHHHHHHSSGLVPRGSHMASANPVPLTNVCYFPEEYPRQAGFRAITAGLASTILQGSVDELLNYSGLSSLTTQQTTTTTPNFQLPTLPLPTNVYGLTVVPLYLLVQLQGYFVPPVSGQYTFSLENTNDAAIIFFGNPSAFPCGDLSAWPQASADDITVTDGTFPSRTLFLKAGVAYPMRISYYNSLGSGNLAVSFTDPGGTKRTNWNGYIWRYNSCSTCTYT: 1.57

Exercise: Answer with reported glycan array binding signal (z-score) of AFCNVH (Aspergillus fumigatus) (protein) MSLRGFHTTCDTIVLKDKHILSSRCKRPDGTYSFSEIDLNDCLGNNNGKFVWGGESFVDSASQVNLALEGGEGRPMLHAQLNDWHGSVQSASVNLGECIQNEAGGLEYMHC
Solution: 3.78

Exercise: Answer with reported glycan array binding signal (z-score) of BabA (Helicobacter pylori), O52269_HELPY (protein) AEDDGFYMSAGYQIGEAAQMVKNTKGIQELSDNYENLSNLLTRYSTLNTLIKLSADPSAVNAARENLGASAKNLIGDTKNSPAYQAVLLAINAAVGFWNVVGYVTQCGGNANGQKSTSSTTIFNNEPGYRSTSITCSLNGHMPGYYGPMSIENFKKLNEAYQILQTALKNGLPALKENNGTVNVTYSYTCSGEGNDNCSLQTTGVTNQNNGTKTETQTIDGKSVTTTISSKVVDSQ
Solution: 2.92

Exercise: Answer with reported glycan array binding signal (z-score) of Pwp2 (Candida glabrata) (protein) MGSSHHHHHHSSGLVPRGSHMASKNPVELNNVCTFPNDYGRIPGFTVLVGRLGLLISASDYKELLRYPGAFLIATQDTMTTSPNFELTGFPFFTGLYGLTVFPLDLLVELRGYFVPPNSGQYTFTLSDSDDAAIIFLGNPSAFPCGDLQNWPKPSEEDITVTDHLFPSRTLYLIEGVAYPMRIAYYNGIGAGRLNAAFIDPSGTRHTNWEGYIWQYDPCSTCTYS
Solution: 5.45
